Assay: qHTS assay to identify small molecule agonists of the TGF-beta/Smad signaling pathway (AID 1346859)
Conditions: SBE-bla HEK293T, TGF-beta/Smad beta-lactamase reporter, 5 h; series mostly up to 76.8 µM
Source text: U.S. Tox21 Program National Center for Advancing Translational Sciences [NCATS] NIH Chemical Genomics Center [NCGC] U.S. Environmental Protection Agency [EPA] National Institutes of Environmental Health Sciences [NIEHS] National Toxicology Program [NTP] U.S. Food and Drug Administration [FDA] […]
Records with an inconclusive call do not appear. Calls of active or inactive are those of the source. Calls come from the whole dose curve; as a rule, active = well fitted activation curve with a large enough effect in the signal ratio in the repeat runs (not every such curve was filed as active); inconclusive = weak or mixed curves; inactive = flat fitted curve, though single readings scatter; the % refers to the signal ratio.

>  <compound>
C=CCOc1cc(Cl)ccc1C(=O)NCCN(CC)CC

>  <activation>
inactive

$$$$
>  <compound>
C[C@@H]1C[C@H]2[C@@H]3C[C@H](F)C4=CC(=O)C=C[C@]4(C)[C@@]3(F)[C@@H](O)C[C@]2(C)[C@@]1(O)C(=O)CO

>  <activation>
inactive

$$$$
>  <compound>
CC(=O)OC(C)c1ccccc1 (stereo not drawn)

>  <activation>
inactive

$$$$
>  <compound>
C=CC(C)(O)CC/C=C(\C)CC (stereo not drawn)

>  <activation>
inactive

$$$$
>  <compound>
Nc1ccc(S(=O)(=O)Nc2ccccn2)cc1

>  <activation>
inactive

$$$$
>  <compound>
COc1cccc2sc(N)nc12

>  <activation>
inactive

$$$$
>  <compound>
CC(=O)N(CC(O)CO)c1c(I)c(C(=O)NCC(O)CO)c(I)c(C(=O)NCC(O)CO)c1I (stereo not drawn)

>  <activation>
inactive

$$$$
>  <compound>
CCN(CC)C(=O)C1CN2CCc3cc(OC)c(OC)cc3C2CC1OC(C)=O (stereo not drawn)

>  <activation>
inactive

$$$$
>  <compound>
O=C1NC2NC(=O)NC2N1 (stereo not drawn)

>  <activation>
inactive

$$$$
>  <compound>
CC(C)(c1ccc(Oc2ccc3c(c2)C(=O)OC3=O)cc1)c1ccc(Oc2ccc3c(c2)C(=O)OC3=O)cc1

>  <activation>
inactive

$$$$
>  <compound>
CCOC(=O)CC(CC(=O)OCC)(OC(C)=O)C(=O)OCC

>  <activation>
inactive

$$$$
>  <compound>
CC(C)c1ccccc1O

>  <activation>
inactive

$$$$
>  <compound>
C1CCN2C[C@@H]3C[C@@H](CN4CCCC[C@@H]34)[C@H]2C1

>  <activation>
inactive

$$$$
>  <compound>
COc1ccc(OC)c(NC(=O)CC(C)=O)c1

>  <activation>
inactive

$$$$
>  <compound>
C[C@H](CCC(=O)O)[C@H]1CC[C@H]2[C@@H]3[C@H](O)C[C@@H]4C[C@H](O)CC[C@]4(C)[C@H]3C[C@H](O)[C@]12C

>  <activation>
inactive

$$$$
>  <compound>
CCC(C)N (stereo not drawn)

>  <activation>
inactive

$$$$
>  <compound>
Cc1cccc(C(=O)O)c1[N+](=O)[O-]

>  <activation>
inactive

$$$$
>  <compound>
CC(C)COC(=O)/C=C/c1ccccc1

>  <activation>
inactive

$$$$
>  <compound>
Nc1cc(Cl)cc(S(=O)(=O)O)c1O

>  <activation>
inactive

$$$$
>  <compound>
CN=C(NC#N)NCCSCc1csc(N=C(N)N)n1

>  <activation>
inactive

$$$$
>  <compound>
CCCCCCCCCCCCCC(=O)OC

>  <activation>
inactive

$$$$
>  <compound>
CCN(Cc1cccc(S(=O)(=O)O)c1)c1ccccc1

>  <activation>
inactive

$$$$
>  <compound>
CC(=O)N1CCN(c2ccc(O)cc2)CC1

>  <activation>
inactive

$$$$
>  <compound>
O=c1cc(O)c(Cl)c[nH]1

>  <activation>
inactive

$$$$
>  <compound>
CCCCCCCCCCCCCCCCCCN(C)C

>  <activation>
inactive

$$$$
>  <compound>
Cc1ncc([N+](=O)[O-])n1CC(O)CCl (stereo not drawn)

>  <activation>
inactive

$$$$
>  <compound>
COc1cc([N+](=O)[O-])ccc1N

>  <activation>
inactive

$$$$
>  <compound>
CCc1nccnc1C

>  <activation>
inactive

$$$$
>  <compound>
O=[Si]=O

>  <activation>
inactive

$$$$
>  <compound>
C=C(C)[C@@H]1CC[C@@H](C)C[C@@H]1O

>  <activation>
inactive

$$$$
>  <compound>
CCCCC(C)C(=O)O (stereo not drawn)

>  <activation>
inactive

$$$$
>  <compound>
CCCCCC(=O)OCC

>  <activation>
inactive

$$$$
>  <compound>
C=CCOC(=O)c1ccc(C(=O)OCC=C)c(C(=O)OCC=C)c1

>  <activation>
inactive

$$$$
>  <compound>
Cc1ccccc1N1CCN(CCc2nnc3n2CCCC3)CC1

>  <activation>
inactive

$$$$
>  <compound>
CO/N=C(/C(=O)N[C@@H]1C(=O)N2C(C(=O)O)=C(Cn3nnc(C)n3)CS[C@H]12)c1csc(N)n1

>  <activation>
inactive

$$$$
>  <compound>
O=C(O)c1ccccc1C(=O)OCc1ccccc1

>  <activation>
inactive

$$$$
>  <compound>
OC[C@@H](O)[C@H](O)[C@@H](O)[C@@H](O)CO

>  <activation>
inactive

$$$$
>  <compound>
CCCCC(CC)CNC(=O)CC(C)OC(=O)CCC(=O)O (stereo not drawn)

>  <activation>
inactive

$$$$

Recorded values, source PubChem BioAssay (Tox21).
